Test system: BMSC (primary human bone marrow mesenchymal stromal cells)
experimentSummary: absolute EC50 for viability; higher = less sensitive
Would you kindly list absolute EC50 for viability for each of these compounds?

# count of solved cases: 3
[
  {
    "compound": "CO[C@@H](C)Cn1c(=O)n(C)c2cnc3ccc(-c4cncc(C(C)(C)O)c4)cc3c21",
    "absolute EC50 for viability": "0.257 µM"
  },
  {
    "compound": "Cc1cn(-c2cc(NC(=O)c3ccc(C)c(Nc4nccc(-c5cccnc5)n4)c3)cc(C(F)(F)F)c2)cn1 [Nilotinib]",
    "absolute EC50 for viability": "> 10 µM"
  },
  {
    "compound": "Cc1c(C(=O)Nc2ccc(N3C[C@@H](C)O[C@@H](C)C3)nc2)cccc1-c1ccc(OC(F)(F)F)cc1 [Sonidegib]",
    "absolute EC50 for viability": "> 10 µM"
  }
]

Provide absolute EC50 for viability values for the following items, in order.
1. NC1(c2ccc(-c3nc4ccn5c(=O)[nH]nc5c4cc3-c3ccccc3)cc2)CCC1 [MK-2206]
2. FC(F)(F)c1ccc(CNc2ccc(Cc3c[nH]c4ncc(Cl)cc34)cn2)cn1 [Pexidartinib]
3. Cn1cc(C2=Nc3cc(NC(=O)C(N)C4CCCCC4)cc4c3C2=CNNC4=O)cn1 (stereo not drawn)
4. O=C1CCC(N2C(=O)c3ccccc3C2=O)C(=O)N1 (stereo not drawn) [Thalidomide]
5. C[C@@H]1C=C2C(=O)O[C@@H]3CC[C@H](C1)[C@]23O [Galiellalactone]

OUT:
> 1 µM
> 10 µM
1.43 µM
> 10 µM
> 25 µM

====

Would you kindly list absolute EC50 for viability for each of these molecules?
Test system: BMSC (primary human bone marrow mesenchymal stromal cells)
experimentSummary: absolute EC50 for viability; higher = less sensitive

# count of solved cases: 4
[
  {
    "molecule": "O=C1CN2Cc3c(ccc(Cl)c3Cl)N=C2N1 [Anagrelide]",
    "absolute EC50 for viability": "> 10 µM"
  },
  {
    "molecule": "CN1CCN(c2nc(C3=C(c4c[nH]c5ccccc45)C(=O)NC3=O)c3ccccc3n2)CC1",
    "absolute EC50 for viability": "> 10 µM"
  },
  {
    "molecule": "CNC(=O)c1cc(Oc2ccc(NC(=O)Nc3ccc(Cl)c(C(F)(F)F)c3)c(F)c2)ccn1",
    "absolute EC50 for viability": "> 10 µM"
  },
  {
    "molecule": "COc1cc(C)c(/C=C/C(C)=C/C=C/C(C)=C/C(=O)O)c(C)c1C",
    "absolute EC50 for viability": "> 10 µM"
  }
]

Provide absolute EC50 for viability values for the following items, in order.
1. CC(=O)Nc1cccc(-n2c(=O)n(C3CC3)c(=O)c3c(Nc4ccc(I)cc4F)n(C)c(=O)c(C)c32)c1
2. CC1(C)NC(=O)N(c2ccc([N+](=O)[O-])c(C(F)(F)F)c2)C1=O [Nilutamide]
3. C[C@H]1CN(C2COC2)CCN1c1ccc(Nc2cc(-c3ccnc(N4CCn5c(cc6c5CC(C)(C)C6)C4=O)c3CO)cn(C)c2=O)nc1
4. COC(=O)c1ccc2c(c1)[nH]c1ncnc(NCCCN3CCCCC3)c12

OUT:
> 0.25 µM
> 10 µM
> 1 µM
> 10 µM

====

Would you kindly list absolute EC50 for viability for each of these molecules?
Test system: BMSC (primary human bone marrow mesenchymal stromal cells)
experimentSummary: absolute EC50 for viability; higher = less sensitive

# count of solved cases: 5
[
  {
    "molecule": "CCc1cncnc1N1CCN(Cc2nc3ccc(C(F)(F)F)cc3[nH]2)CC1",
    "absolute EC50 for viability": "> 10000 nM"
  },
  {
    "molecule": "C=CC(=O)Nc1cc2c(Nc3ccc(F)c(Cl)c3)ncnc2cc1OCCCN1CCOCC1 [Canertinib]",
    "absolute EC50 for viability": "> 10000 nM"
  },
  {
    "molecule": "CNC(=O)c1ccccc1Sc1ccc2c(/C=C/c3ccccn3)n[nH]c2c1 [Axitinib]",
    "absolute EC50 for viability": "> 10000 nM"
  },
  {
    "molecule": "CN1CCC(COc2cnc(-c3cccc(Cn4nc(-c5cccc(C#N)c5)ccc4=O)c3)nc2)CC1 [Tepotinib]",
    "absolute EC50 for viability": "> 1000 nM"
  },
  {
    "molecule": "CC(C)[C@H](C(=O)Nc1ccc(C(=O)NO)cc1)c1ccccc1 [AR-42]",
    "absolute EC50 for viability": "1940 nM"
  }
]

Provide absolute EC50 for viability values for the following items, in order.
1. O=C(c1ccc(C(=O)N2CCC(N3CCCC3)CC2)c(Nc2ccccc2)c1)N1CCC(N2CCCC2)CC1 [UNC1215]
2. COc1c(C)cnc(Cn2cnc3c(Cl)nc(N)nc32)c1C [BIIB021]

OUT:
> 10000 nM
449 nM

Provide absolute EC50 for viability values for the following items, in order.
1. Cc1cccc(CC(=O)N2CCc3c2ccc(-c2cn(C)c4ncnc(N)c24)c3F)n1
2. C=CC(=O)Nc1cccc(Nc2nc(Nc3ccc(OCCOC)cc3)ncc2F)c1 [Spebrutinib]

OUT:
["> 2500 nM", "> 1000 nM"]
